The reported measurements were obtained from PubChem BioAssay.

I'd be grateful if you could share measured composite z-score for these entries.
ASSAY_NAME: binders of probe aFSTL3 on microarray, primary screen, stem cell growth factor project, biochemical, small-molecule microarray, fluorescence 635/667 (AID 1064);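 note: measures binding of the biotinylated anti-FSTL3 antibody to printed compounds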
MEASUREMENT_PARAMETERS: higher = more signal
Hey, just send me the number, nothing else.

input: What value of composite z-score has been reported for the following compound? CCC(CC)C(O)C1C=CC2C(=O)N(c3ccccc3)C(=O)C2N1Nc1ccc(C#N)cc1 (stereo not given)
output: 1.07

input: What value of composite z-score has been reported for the following compound? COc1ccc([Si](C)(C)[C@@H]2[C@@H](CCn3cc([C@H](O)c4ccccc4)nn3)O[C@]3(C(=O)N(Cc4ccc(N5C(=O)c6cccc7cccc5c67)cc4)c4ccccc43)[C@H]2C)cc1
output: 0.428

input: What value of composite z-score has been reported for the following compound? COC(=O)[C@@]1(Cc2ccc(OC)cc2)[C@H]2c3cc(C(=O)N4CCCC4)n(Cc4ccccn4)c3C[C@H]2CN1C(=O)c1ccccc1
output: 0.381

input: What value of composite z-score has been reported for the following compound? CC(C)c1ccc(NN2C(C(O)c3c(F)cccc3Cl)C=CC3C(=O)N(c4ccccc4)C(=O)C32)cc1 (stereo not given)
output: 1.07

input: What value of composite z-score has been reported for the following compound? CN(C)CCCNC(=O)[C@@]1(Cc2ccccc2I)c2ccccc2C(=O)N(Cc2ccccc2C(F)(F)F)[C@H]1c1ccc(CO)cc1
output: 0.459

input: What value of composite z-score has been reported for the following compound? CN1C=C(C(=O)OCCS(C)(=O)=O)C(C(=O)OCCS(C)(=O)=O)=CC(CCCO)=CC1C1CC1 (stereo not given)
output: -0.135

input: What value of composite z-score has been reported for the following compound? [N-]=[N+]=NCc1ccccc1[C@H]1OC(c2ccc(OCCCO)cc2)=N[C@@]1(CCS(=O)(=O)c1ccccc1)C(=O)N1CCOCC1
output: 0.476

input: What value of composite z-score has been reported for the following compound? CCOC(=O)C1=C[C@@H](C(C)C)N(S(=O)(=O)c2ccc(C)cc2)[C@H]1c1ccc(C(C)C)cc1
output: -0.462

input: What value of composite z-score has been reported for the following compound? CCOC(=O)C[C@H]1[C@H](OC(=O)Cc2ccc3c(c2)OCO3)[C@@H](NC(=O)C2CCCCC2)c2cc(OCCCO)ccc2N1C(=O)Cc1ccc(OC)cc1
output: -0.397

input: What value of composite z-score has been reported for the following compound? O=C1c2ccccc2[C@@]2(Cc3ccccc3N(Cc3ccccc3)C2=O)[C@H](c2ccc(CO)cc2)N1C1CCCCC1
output: -0.382

input: What value of composite z-score has been reported for the following compound? CC(C)(C)OC(=O)CC[C@]1(C(=O)N2CCCCC2)N=C(c2ccc(OCCCO)cc2)O[C@H]1c1ccccc1N=[N+]=[N-]
output: 1.14

input: What value of composite z-score has been reported for the following compound? O=C1O[C@@H](c2ccccc2)[C@@H](c2ccccc2)N2[C@@H](c3ccc(O)cc3)[C@]3(C(=O)Nc4ccc(C#CC5=CCCCC5)cc43)[C@@H](C(=O)O)[C@H]12
output: 0.638

input: What value of composite z-score has been reported for the following compound? C=C(COC)/C(=C/C[C@H](OC(=O)c1ccncc1)c1cccc(OCCO)c1)c1cc(C(=O)OC)ccc1OC
output: -0.282

input: What value of composite z-score has been reported for the following compound? [N-]=[N+]=NCc1ccccc1[C@@H]1OC(c2ccc(OCCCO)cc2)=N[C@]1(Cc1ccccc1)C(=O)N1CCCCC1
output: 0.49

input: What value of composite z-score has been reported for the following compound? CCCCCN1CC=CC23O[C@@H]4/C=C\CCCOC(=O)C4[C@H]2C(=O)N(CCCCCCO)[C@@H]3C1=O (stereo not given in full)
output: -0.19
